From: patent US20240336574A1

biological target: recombinant human NaV1.8 stably transfected HEK cells (Homo sapiens, UniProt Q9Y5Y9); construct: expressed in transfected cells; host or cells: HEK cells, stably transfected; assay: Compound profiling on NaV1.8, human NaV1.8 cell line, SyncroPatch384PE automated patch clamp assay (Example 102, first set of compounds, Table 16); format: cell-based; conditions: resting state block (P1 measurement), human NaV1.8 HEK cells, Table 16 (first set of compounds), read-out: P1IC50
Sequence (Q9Y5Y9 whole entry): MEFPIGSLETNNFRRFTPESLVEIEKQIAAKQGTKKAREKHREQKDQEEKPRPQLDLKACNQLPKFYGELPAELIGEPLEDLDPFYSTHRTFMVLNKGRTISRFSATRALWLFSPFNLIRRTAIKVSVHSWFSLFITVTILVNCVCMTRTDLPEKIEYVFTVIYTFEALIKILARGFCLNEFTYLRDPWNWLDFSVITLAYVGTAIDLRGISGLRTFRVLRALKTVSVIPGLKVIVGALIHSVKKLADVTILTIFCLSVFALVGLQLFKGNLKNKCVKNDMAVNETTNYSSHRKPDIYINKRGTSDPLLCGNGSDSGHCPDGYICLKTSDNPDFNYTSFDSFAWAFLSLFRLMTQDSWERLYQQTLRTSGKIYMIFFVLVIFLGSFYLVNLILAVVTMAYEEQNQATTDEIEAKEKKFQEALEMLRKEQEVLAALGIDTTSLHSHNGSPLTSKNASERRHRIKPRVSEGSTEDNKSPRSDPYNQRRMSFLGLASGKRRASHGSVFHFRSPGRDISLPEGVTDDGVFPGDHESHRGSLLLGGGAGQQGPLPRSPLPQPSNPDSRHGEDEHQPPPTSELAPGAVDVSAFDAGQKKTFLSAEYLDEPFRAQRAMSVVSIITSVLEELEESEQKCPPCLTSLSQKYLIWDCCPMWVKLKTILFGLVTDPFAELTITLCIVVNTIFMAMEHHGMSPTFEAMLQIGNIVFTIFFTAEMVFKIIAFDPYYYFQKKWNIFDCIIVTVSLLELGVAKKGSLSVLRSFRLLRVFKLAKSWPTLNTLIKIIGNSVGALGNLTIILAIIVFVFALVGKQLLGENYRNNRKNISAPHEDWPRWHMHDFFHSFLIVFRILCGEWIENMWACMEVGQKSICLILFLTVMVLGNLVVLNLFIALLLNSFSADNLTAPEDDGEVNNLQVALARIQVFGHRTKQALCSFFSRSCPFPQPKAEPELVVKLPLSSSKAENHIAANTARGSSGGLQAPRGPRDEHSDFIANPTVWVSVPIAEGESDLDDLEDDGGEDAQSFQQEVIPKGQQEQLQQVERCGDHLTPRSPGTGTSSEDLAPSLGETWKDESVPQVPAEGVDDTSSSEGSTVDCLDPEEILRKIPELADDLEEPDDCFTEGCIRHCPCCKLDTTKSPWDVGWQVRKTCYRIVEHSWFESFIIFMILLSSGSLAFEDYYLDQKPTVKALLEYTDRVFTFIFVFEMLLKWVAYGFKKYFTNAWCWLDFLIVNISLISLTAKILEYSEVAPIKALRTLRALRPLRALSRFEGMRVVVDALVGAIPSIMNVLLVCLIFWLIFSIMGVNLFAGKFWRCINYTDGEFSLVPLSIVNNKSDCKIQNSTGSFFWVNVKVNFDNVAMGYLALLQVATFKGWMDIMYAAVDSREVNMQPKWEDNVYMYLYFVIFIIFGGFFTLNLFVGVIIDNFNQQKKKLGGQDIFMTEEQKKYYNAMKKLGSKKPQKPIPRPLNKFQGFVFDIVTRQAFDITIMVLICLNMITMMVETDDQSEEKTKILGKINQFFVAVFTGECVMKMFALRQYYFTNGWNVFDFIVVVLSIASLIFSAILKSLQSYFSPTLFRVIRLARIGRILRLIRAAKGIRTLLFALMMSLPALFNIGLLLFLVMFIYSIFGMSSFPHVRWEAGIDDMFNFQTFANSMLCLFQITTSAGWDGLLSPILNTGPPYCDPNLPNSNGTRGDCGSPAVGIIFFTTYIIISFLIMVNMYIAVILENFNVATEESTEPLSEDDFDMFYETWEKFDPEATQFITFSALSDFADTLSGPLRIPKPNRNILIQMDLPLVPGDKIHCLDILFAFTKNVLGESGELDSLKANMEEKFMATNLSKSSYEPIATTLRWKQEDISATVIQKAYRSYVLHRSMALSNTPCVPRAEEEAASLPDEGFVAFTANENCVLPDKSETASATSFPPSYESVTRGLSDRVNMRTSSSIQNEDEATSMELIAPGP
// reported IC50 per item

// COc1cc(C#N)ccc1Oc1nnc(C(F)(F)F)c(C)c1C(=O)Nc1cccc(C#N)c1 : IC50 value = 20 to 40 nM

# molecule COc1cc(C#N)ccc1Oc1nnc(C2CC2(F)F)c(C)c1C(=O)Nc1cccc([S@@](C)(=N)=O)c1 (stereo partly shown) ; its IC50 = 40 to 200 nM

So for COc1c(Oc2ncc(C(F)(F)F)cc2C(=O)Nc2cccc(C(N)=O)c2)ccc(F)c1F , the logged IC50 turned out to be ≤ 20 nM

Documented IC50 of COc1cc(C#N)ccc1Oc1nnc(-c2cnc(C)nc2)c(C)c1C(=O)Nc1cccc(S(C)(=N)=O)c1 (stereo not shown) : 200 to 500 nM
